Reference source: PubChem BioAssay AID1159580

Assay: chemical genetic growth profiling, strain panel (AID 1159580);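 note: tested at 20 µM; growth read once vehicle control cultures reached saturation at 30 °C; 1 = growth at the plate median or of vehicle wells; lower values mean less growth of the strain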
Conditions: S. cerevisiae deletion strains, growth OD, locus YOR184W, strain ser1
Hit rate of the full screen: of about 5,500 compounds, about 2,000 (36%) were called active. Not shown: some 18% with an inconclusive outcome. Cut-off read from the data, not from the text of the source: active = normalized growth mostly below about 0.91 (no sharp cut-off); inconclusive = no clear call, values can overlap the other calls; inactive = mostly above about 0.92. The list shows a part of the results.
Pick one and only one: yes (1) (active), no (0) (inactive)

Input: # outcome recorded in this test, key = CC(=O)NC1SCCC1=O (stereo unspecified)
Output: no (0)

Input: Next record, please: CCN(CCO)CCCC(C)Nc1ccnc2cc(Cl)ccc12 (stereo unspecified)
Output: no (0)

Input: Next record, please: CCN(CC)CCCC(C)Nc1c2ccc(Cl)cc2nc2ccc(OC)cc12 (stereo unspecified)
Output: yes (1)

Input: Next record, please: "Cc1c(O)c(C(=O)CC(C)C)c2oc3c(C(=O)CC(C)C)c(O)c(C)c(O)c3c2c1O"
Output: no (0)

Input: Next record, please: CCN(CC)CCCC(C)Nc1ccnc2cc(Cl)ccc12 (stereo unspecified)
Output: no (0)

Input: Next record, please: CCOC(=O)C(Cc1ccc(O)cc1)NC(C)=O (stereo unspecified)
Output: no (0)

----------
Experiment: chemical genetic growth profiling, strain panel (AID 1159580);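 note: tested at 20 µM; growth read once vehicle control cultures reached saturation at 30 °C; 1 = growth at the plate median or of vehicle wells; lower values mean less growth of the strain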
Settings: S. cerevisiae deletion strains, growth OD, locus YDL005C, strain med2, hits give low values
The whole screen tested about 5,500 compounds, of which about 2,000 (36%) were called active. Not shown: some 18% with an inconclusive outcome. The list shows a part of the results.
measured parameter: normalized growth
Please respond with just the number, no unit label.

Input: Which normalized growth reading was recorded for the molecule "COc1ccc2c(c1OC)C(=O)O[C@H]2[C@H]1c2cc3c(cc2CCN1C)OCO3" ?
Output: 0.997

Input: Next record, please: OCCN1C[C@@H](O)[C@@H](O)C(O)C1CO (stereo partly specified)
Output: 1.01

Input: Next record, please: NC(=O)C(c1ccccc1)(c1ccccc1)C1CCN(CCc2ccc3c(c2)CCO3)C1 (stereo unspecified)
Output: 1.02

Input: Next record, please: "C[N+](C)(C)CCOC(N)=O"
Output: 1.03

Input: Next record, please: "CC(=O)OC(C)(C)[C@@H]1Cc2cc3ccc(=O)oc3cc2O1"
Output: 0.977

Input: Next record, please: "COc1ccc2c(c1OC)C(=O)O[C@@H]2[C@H]1c2cc3c(cc2CCN1C)OCO3"
Output: 0.997

Input: Next record, please: CC(C[N+](C)(C)C)OC(N)=O (stereo unspecified)
Output: 1.01

Input: Next record, please: "CC(=O)OCC[N+](C)(C)C"
Output: 1

Input: Next record, please: CCC(=O)O[C@H]1CCC2C3CCC4=CC(=O)CC[C@]4(C)C3CC[C@@]21C (stereo partly specified)
Output: 0.949

Input: Next record, please: C[C@]12CCC(=O)C=C1CCC1C2CC[C@@]2(C)C1CC[C@@H]2O (stereo partly specified)
Output: 0.989

Input: Next record, please: CC(=O)O[C@@H]1C[C@@]2(C)C(CC[C@@H]2C(C)=O)C2CCC3=CC(=O)CC[C@]3(C)C21 (stereo partly specified)
Output: 1.01

----------
Test: chemical genetic growth profiling, strain panel (AID 1159580);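 note: tested at 20 µM; growth read once vehicle control cultures reached saturation at 30 °C; 1 = growth at the plate median or of vehicle wells; lower values mean less growth of the strain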
Settings: S. cerevisiae deletion strains, growth OD, locus YMR001C, strain CDC5, hits give low values
The campaign covered roughly 5,500 compounds. About 2,000 (36%) were called active. Not shown: some 18% with an inconclusive outcome. The list shows a part of the results.
measured parameter: normalized growth
Please respond with just the number, no unit label.

Input: Which normalized growth reading was recorded for the molecule "Cc1cc(Cl)ccc1NNC(=O)c1snnc1C" ?
Output: 0.951

Input: Next record, please: "Cc1ccccc1C(=O)Oc1ccc(C(F)(F)F)cc1[N+](=O)[O-]"
Output: 0.969

Input: Next record, please: "N#Cc1ccc(S(=O)(=O)Nc2ccccc2Oc2ccc(Cl)cc2Cl)cc1"
Output: 0.982

Input: Next record, please: "CC(C)(C)CN/C(C#N)=C(/C#N)NCc1cccc(Cl)c1"
Output: 0.995

Input: Next record, please: "Cc1ccc(Sc2c(Sc3ccc(C)cc3)c(=O)c2=O)cc1"
Output: 0.952

Input: Next record, please: "N#CC(C#N)=C(SCc1c(Cl)cccc1Cl)SCc1c(Cl)cccc1Cl"
Output: 0.985

Input: Next record, please: Cc1ccc(OCC2SCCN2C(=O)c2ccc(C(F)(F)F)cc2)c([N+](=O)[O-])c1 (centres undefined)
Output: 1.01

Input: Next record, please: "COc1cc(NC(=S)NC(=O)c2ccccc2)c(OC)cc1Cl"
Output: 0.995

Input: Next record, please: "O=C(N/C=C/c1ccsc1)Nc1cc(C(F)(F)F)cc(C(F)(F)F)c1"
Output: 0.976

Input: Next record, please: "Cc1ccc(-c2csc(-c3cccnc3)n2)c(C)c1"
Output: 0.957

Input: Next record, please: "COc1ccc(NNC(=O)c2sc3ccccc3c2Cl)cc1"
Output: 0.925

Input: Next record, please: "O=S(=O)(Nc1cccc2nsnc12)c1cc(Cl)sc1Cl"
Output: 0.959

Input: Next record, please: "Cc1nnsc1C(=O)NNc1c(Cl)cccc1Cl"
Output: 0.978

Input: Next record, please: "COc1cc(NC(=S)N(C)C)c(OC)cc1Cl"
Output: 0.985

Input: Next record, please: "Nc1ccccc1SCc1c(Cl)cccc1Cl"
Output: 0.945

Input: Next record, please: "O=C(Oc1ccc(C(F)(F)F)cc1[N+](=O)[O-])c1cccc(Cl)c1"
Output: 0.943

Input: Next record, please: CS(=NC(=O)c1cccc(Cl)c1)c1ccc(OC(=O)c2ccc(Cl)cc2)cc1 (centres undefined)
Output: 0.964

Input: Next record, please: "Cc1cc(C(=O)NNc2ccc(F)cc2F)no1"
Output: 0.969

Input: Next record, please: "CCOC(=O)CSC(=S)NCc1ccc(C)cc1"
Output: 0.946

Input: Next record, please: "COc1cc(NC(=S)NNS(=O)(=O)c2ccc(C)cc2)c(OC)cc1Cl"
Output: 0.979

Input: Next record, please: "S=C(Nc1ccc(Cl)cc1Cl)N(c1cccc(Cl)c1)c1nc2ccccc2s1"
Output: 0.951

Input: Next record, please: "CC(=O)CSc1nnc(-c2ccc(C(C)(C)C)cc2)n1-c1ccc(Cl)cc1"
Output: 0.985

Input: Next record, please: "Cc1nnsc1C(=O)NNc1ccc(F)cc1F"
Output: 0.949

Input: Next record, please: "Cc1c(Cc2ccc(F)cc2)c(=O)oc2cc(O)ccc12"
Output: 0.978
